# maps each entry to its IC50
Tested on: human cytomegalovirus (HCMV)
Assay: Antiviral activity against HCMV, virus yield/replication assay in MRC5 cells
Assay type: cell-based
Details: Human betaherpesvirus 5; infected human MRC5 cells; virus yield in supernatant at 96 hours / four days, read by IE protein expression in fresh MRC5 cells

compound | IC50
COc1ccccc1C(C)C(F)C(=O)Nc1cccc2cccnc12 (stereo not drawn) | 5.38 µM
COc1ccccc1C(C)CC(=O)n1ccc2ccccc21 (stereo not drawn) | > 50 µM
CC(CC(=O)Nc1cccc2cccnc12)c1ccccc1 (stereo not drawn) | > 50 µM
CCC(CC(=O)Nc1cccc2cccnc12)c1ccccc1OC (stereo not drawn) | 5.3 µM
COc1ccc(C(C)CCNc2ccc3ncccc3c2)cc1 (stereo not drawn) | 2.41 µM
Cc1ccccc1C(C)CC(=O)Nc1cccc2cccnc12 (stereo not drawn) | > 50 µM
COc1ccccc1C(C)CC(=O)Nc1cccc2cccnc12 (stereo not drawn) | 19.7 µM
COc1ccccc1C(C)CC(=O)Nc1cccc2[nH]ccc12 (stereo not drawn) | 12.5 µM
COc1cccc(C(C)CC(=O)Nc2cnc3ccccc3c2)c1 (stereo not drawn) | 21.2 µM
COc1ccc(Br)cc1C(C)CC(=O)Nc1cccc2cccnc12 (stereo not drawn) | 5.88 µM
COc1ccccc1C(C)CC(=O)Nc1cccc2ccccc12 (stereo not drawn) | 29.2 µM
CC(CC(=O)Nc1cccc2cccnc12)c1ccccn1 (stereo not drawn) | > 50 µM
COc1ccc(C(C)CCNc2cnc3ccccc3c2)cc1 (stereo not drawn) | 25 to 50 µM
CC(CCNc1cnc2ccccc2c1)c1ccccc1Cl (stereo not drawn) | 18.6 µM
COc1ccccc1C(C)CCNc1cccc2nccnc12 (stereo not drawn) | 3.61 µM

====

Test system: human cytomegalovirus (HCMV)
Test: Antiviral activity against HCMV, virus yield/replication assay in MRC5 cells
Format: cell-based
Details: Human betaherpesvirus 5; infected human MRC5 cells; virus yield in supernatant at 96 hours / four days, read by IE protein expression in fresh MRC5 cells
pIC50: −log10 of the molar value.
# binarize pIC50: threshold 5 inclusive, high side T, low side F

molecule | cat
COc1cccc(C(C)CC(=O)Nc2ccc3ncccc3c2)c1 (centres unmarked) | T
CC(CNc1cccc2[nH]ccc12)c1ccccc1Cl (centres unmarked) | T
CC(CNc1cccc2nccnc12)c1ccccc1Cl (centres unmarked) | T
COc1cccc(C(C)CCNc2cccc3cccnc23)c1 (centres unmarked) | T
CC(CC(=O)Nc1cnc2ccccc2c1)c1ccccc1 (centres unmarked) | T
COc1ccccc1CCC(=O)Nc1cccc2cccnc12 | F
COc1ccccc1C(C)C(O)CNc1cccc2cccnc12 (centres unmarked) | F
